Target: T1, PCSK9-D374Y-BP15-His6 (human, UniProt Q8NBP7 31-692, biotin on the BP15 biotin receiving peptide)
T1 construct: also called PCSK9-Y; mutant PCSK9
Test: ELISA, bio-PCSK9-Y captured on streptavidin plate
Listing: EC50 of selected binders
// units = µg/mL; emit number, no label

Some binders with known EC50 results, for comparison:
h001-9 (antibody, human IgG1, V domains shown, Variable regions only; also called h001_VH.1B + h001_VL.1) VH: QVQLVQSGAEVKKPGASVKVSCKASGYTFTDYWMHWVRQAPGQGLEWMGYINPSSGFTKYHQNFKDRVTMTRDTSISTAYMELSRLTSDDTAVYYCARQYDYDEDWYFDVWGQGTTVTVSS VL: DIQMTQSPSSLSASVGDRVTITCKSSQSLLNSRTRKNFLAWYQQKPGKAPKLLIYWASTRESGVPSRFSGSGSGTDFTLTISSLQPEDFATYYCKQSFNLFTFGQGTKLEIK: 0.0194
h001-11 (antibody, human IgG1, V domains shown, Variable regions only; also called h001_VH.1B + h001_VL.1B) VH: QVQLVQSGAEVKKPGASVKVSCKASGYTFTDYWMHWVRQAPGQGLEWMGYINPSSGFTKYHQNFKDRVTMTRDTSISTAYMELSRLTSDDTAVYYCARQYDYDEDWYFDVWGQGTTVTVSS VL: DIQMSQSPSSLSASVGDRVTITCKSSQSLLNSRTRKNFLAWYQQKPGKAPKLLIYWASTRESGVPDRFSGSGSGTDFTLTISSLQPEDFATYYCKQSFNLFTFGQGTKLEIK: 0.017

Now for the binder whose EC50 we want.
Give EC50 for the following binder: h001-5 (antibody, human IgG1, V domains shown, Variable regions only; also called h001_VH.1A + h001_VL.1) VH: QVQLVQSGAEVKKPGASVKVSCKASGYTFNDYWMHWVRQAPGQGLEWMGYINPSSGFTKYHQNFKDRVTMTRDTSISTAYMELSRLRSDDTAVYYCARQYDYDEDWYFDVWGQGTTVTVSS VL: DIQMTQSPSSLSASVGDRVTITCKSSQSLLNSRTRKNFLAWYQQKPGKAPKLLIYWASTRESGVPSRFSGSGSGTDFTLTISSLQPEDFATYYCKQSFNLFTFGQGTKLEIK
0.0152
